- Tested on: NCI-H522 lung
- test-protocol: NCI tumour cell line growth inhibition, 48 h
recorded-endpoint: TGI

Examples with answers:
molecule="COC(=O)CCN1CCN(CCO)CC1C (centres undefined)" observed_measurement="> 10 µM"
molecule=O=c1[nH]cc(CO)c(=O)[nH]1 observed_measurement="> 100 µM"
molecule=Cc1ccc(-n2nnc3c(sc4ccccc43)c2=O)cc1 observed_measurement="> 100 µM"

Next up:
Form: Entry = `CC(=O)Nc1c(I)c(C(=O)O)c(I)c(N(C)C(C)=O)c1I` | System = NCI-H522 lung | TGI = ____
> 100 µM

====

- Test system: RPMI-8226 leukemia
- test-protocol: NCI tumour cell line growth inhibition, 48 h
A collection of compounds and their measured log10(TGI)
Transform log10 | Measure TGI | Unit µM

compound=COc1cc(CCC(=O)O)c2cc3ccccc3cc2c1O observed_measurement=1.42
compound=NS(=O)(=O)c1ccc(N=Nc2ccc(O)c(O)c2)cc1 observed_measurement=1.60
compound=O=C(NCCSSCCNC(=O)/C(Cc1ccc(O)c(Br)c1)=N/O)/C(Cc1ccc(O)c(Br)c1)=N/O observed_measurement=0.73

What log10(TGI) value was documented for this compound, `CCc1ccc(Oc2nccc(-c3c(-c4ccc(F)cc4)ncn3C3CCNCC3)n2)cc1` ?
1.17

What log10(TGI) value was documented for this compound, `O=[N+]([O-])c1ccc(Oc2cccc(C(F)(F)F)c2)c([N+](=O)[O-])c1` ?
0.88

What log10(TGI) value was documented for this compound, `Oc1ccc(NCc2cc(O)ccc2O)cc1` ?
1.65

What log10(TGI) value was documented for this compound, Cc1ccc(NC(C(=O)c2ccccc2)c2ccccc2)cc1 (stereo unspecified) ?
1.16

What log10(TGI) value was documented for this compound, `O=CN1CCN(C(=O)c2ccc(Cl)cc2)C1=S` ?
1.23

====

- System: NCI-H460 lung
- test-protocol: NCI tumour cell line growth inhibition, 48 h
recorded-endpoint: TGI

Examples with answers:
compound=Cc1cc2oc(=O)c(Cl)c(Cl)c2c(C)c1Cl recorded_endpoint=TGI observed_measurement="59.9 µM"
compound=O=C(NCCSSCCNC(=O)/C(Cc1ccc(O)c(Br)c1)=N/O)/C(Cc1ccc(O)c(Br)c1)=N/O recorded_endpoint=TGI observed_measurement="> 20.6 µM"
compound=CCOC(=O)C1=COC(C)(C)CC1=O recorded_endpoint=TGI observed_measurement="> 100 µM"
compound=CCSC1=C(C#N)C2(CCCCC2)C2=C(CC(C)(C)CC2=O)N1 recorded_endpoint=TGI observed_measurement="21.2 µM"
compound=O=[N+]([O-])c1ccc(Oc2cccc(C(F)(F)F)c2)c([N+](=O)[O-])c1 recorded_endpoint=TGI observed_measurement="10.2 µM"
compound=O=C1NC2(NC(=O)C1=O)Nc1ccccc1S2 recorded_endpoint=TGI observed_measurement="> 100 µM"
compound=Cc1ccc2nc3sc(=O)sc3nc2c1 recorded_endpoint=TGI observed_measurement="26.6 µM"
compound="C=CC(Br)(CBr)CCC(Br)C(C)(C)Br (stereo not drawn)" recorded_endpoint=TGI observed_measurement="23.4 µM"

What TGI value was documented for this compound, `CC(C)(C)c1cc(Oc2ccc(C#N)c(C#N)c2)cc(C(C)(C)C)c1` ?
> 100 µM

What TGI value was documented for this compound, Cc1ccc(S(=O)(=O)C(C#N)c2nc3ccccc3nc2N2CCOCC2)cc1 (stereo not drawn) ?
39.7 µM

What TGI value was documented for this compound, CCCCCCCCCCCCNC(=O)[C@H]1CSC(c2cc(Br)cs2)N1 (stereo partly drawn) ?
1.99 µM

What TGI value was documented for this compound, C=CCN1C(=O)/C(=C/c2ccccc2)N=C1SC1OC(COC(C)=O)C(OC(C)=O)C(OC(C)=O)C1OC(C)=O (stereo not drawn) ?
> 100 µM

What TGI value was documented for this compound, `COc1ccc(Oc2nc(Nc3ccc(N4CCOCC4)cc3)ncc2NC(=O)Nc2cc(OC)cc(OC)c2)cc1` ?
5.72 µM

What TGI value was documented for this compound, `Cc1cc(N2CCN(C)CC2)nc(N(CCNc2ccnc3cc(Cl)ccc23)Cc2ccco2)n1` ?
11.8 µM

What TGI value was documented for this compound, `c1ccc(N=C2C(=Nc3ccccc3)N(C3CCCCC3)C(=NC3CCCCC3)N2c2ccccc2)cc1` ?
> 100 µM

What TGI value was documented for this compound, `O=C(Nc1ccccc1)c1cc2c(cc1Cl)SC(NNCCO)=NS2(=O)=O` ?
> 100 µM

What TGI value was documented for this compound, `COC(=O)CSc1n[nH]c(-c2ccccc2)n1` ?
> 100 µM
